// reported TGI per item
System: HOP-62 NSCLC
test_protocol: NCI tumour cell line growth inhibition, 48 h

See these solved cases before continuing.
compound: Nc1ccc(C2=NN(c3ccccc3)C(c3ccc(Cl)cc3)C2)cc1 (stereo not given)
TGI: 5.05 µM

compound: Cc1cc2c(ccc3c(C)cc(=O)oc32)o1
TGI: > 100 µM

Form field: reported TGI of `COc1cc(NC(N)=NCCC(C)(C)Oc2ccc(C(F)(F)F)cc2)ncc1C#N`
3.2 µM

Form field: reported TGI of `C[Si](C)(OCCS(=O)(=O)O)C1(Cc2cccc3ccccc23)S(=O)(=O)OCCOS1(=O)=O`
45 µM

Form field: reported TGI of `O=S(=O)(Nc1ccccc1Cl)c1ccc(-c2cnc(C3CC3)o2)cc1`
> 100 µM

====

System: SK-MEL-28 melanoma
test_protocol: NCI tumour cell line growth inhibition, 48 h
// reported TGI per item
Give just the numeric value; µM need not be written.

See these solved cases before continuing.
compound: O=C(c1ccccc1)N1CCN(C(=S)N(C(=O)c2ccccc2)c2ccccc2)C1=S
quantity_kind: TGI
result_units: µM
value_observed: 9.55
--
compound: CC[N+](CC)=c1sc2c(s1)C(c1ccc(Cl)cc1)Oc1ccc(Cl)cc1-2 (stereo not given)
quantity_kind: TGI
result_units: µM
value_observed: 2.82
--
compound: O=S(=O)(CCBr)CCBr
quantity_kind: TGI
result_units: µM
value_observed: 8.61
--
compound: COC(=O)[C@]1(c2cc3ccccc3n2S(=O)(=O)c2ccccc2)CC2CN(C(C)=O)C1CC2=O (stereo not given in full)
quantity_kind: TGI
result_units: µM
value_observed: 11.7
--
compound: CC(C)/C(Cl)=N\OC(=O)Nc1ccccc1F
quantity_kind: TGI
result_units: µM
value_observed: 30.4
--
compound: COC(=O)CCc1c[nH]c2ccc(N(CCCl)CCCl)cc12
quantity_kind: TGI
result_units: µM
value_observed: 33.6

Form field: reported TGI of CCOC(=O)C1=CNC(C(=O)OCC)C1c1cccn1-c1ccc(Cl)cc1[N+](=O)[O-] (stereo not given)
53.1

====

Tested on: LOX IMVI melanoma
test_protocol: NCI tumour cell line growth inhibition, 48 h
quantity_kind: GI50

Form field: reported GI50 of `C=C1C(=O)O[C@H]2C[C@@H]1CC/C(C)=C/CC/C(C)=C/CC[C@H]2C`
5.56 µM

====

Tested on: OVCAR-4 ovarian
test_protocol: NCI tumour cell line growth inhibition, 48 h
// reported TGI per item

compound: COc1ccc(C(=O)/C=C/c2ccc(C)cc2)cc1OC
target_or_test_system: OVCAR-4 ovarian
quantity_kind: TGI
value_observed: 24.7 µM

Form field: reported TGI of `CC(=O)[CH-]C(C)=O.CC(=O)[CH-]C(C)=O.[CH2-]CCC.[CH2-]CCC.[Sn+4]`
2.61 µM

Form field: reported TGI of CCOC(=O)C1N(S(=O)(=O)c2ccc(C)cc2)CCC12c1ccccc1N(C(C)=O)C2c1ccc(OC)c(OC)c1 (stereo not given)
> 100 µM

Form field: reported TGI of `CN[C@H]1C=C[C@@H]2/C=C(C)/C=C/[C@@H](C)[C@H]([C@H](C)[C@H](O)[C@@H](C)NC(C)=O)OC(=O)/C=C/C=C(C)\C=C\[C@]2(C)C1`
> 49 µM

Form field: reported TGI of CCCCCC(=O)C(C)C1=Nc2nnc(CCCCCCCc3nnc4n3C(=O)C(C(C)C(=O)CCCCC)=N4)n2C1=O (stereo not given)
> 100 µM

Form field: reported TGI of Cc1ccc(C)c2c1C(O)(C#Cc1ccccc1)c1ccccc1C2(O)C#Cc1ccccc1 (stereo not given)
> 100 µM

Form field: reported TGI of `Cc1cc2c(ccc3c(C)cc(=O)oc32)o1`
> 100 µM

Form field: reported TGI of CC(C(=O)c1ccccc1)C(c1ccccc1)N1CCOCC1 (stereo not given)
> 100 µM

Form field: reported TGI of C=C1C(O)C2C(=C(CCc3ccccc3)C13CC3)C(=O)C(C)(CO)C2O (stereo not given)
> 100 µM

Form field: reported TGI of `CCCC(=O)NC1=C(Cl)C(=O)c2ccccc2C1=O`
17.1 µM

Form field: reported TGI of N#CC1=C(N)n2c(s/c(=C\c3ccc(Cl)cc3)c2=O)=C(c2nc3ccccc3[nH]2)C1c1ccc(Cl)cc1 (stereo not given)
5.22 µM
